Hey, just so you know, these numbers are from PubChem BioAssay AID1159580.

EXPERIMENT_NOTES: chemical genetic growth profiling, strain panel (AID 1159580);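 note: tested at 20 µM; growth read once vehicle control cultures reached saturation at 30 °C; 1 = growth at the plate median or of vehicle wells; lower values mean less growth of the strain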
TEST_CONTEXT: S. cerevisiae deletion strains, growth OD, locus YPL106C, strain sse1, active compounds read low
Screen size: about 5,500 compounds; about 2,000 (36%) were called active. About 18% were inconclusive and are not listed. This is one part of the list.
QUANTITY_NAME: normalized growth
Numbers only.

COMPOUND	normalized growth
COc1c(O)cc2c(c1O)[C@H]1O[C@H](CO)[C@@H](O)[C@H](O)[C@@H]1OC2=O	1.02

# batch: return normalized growth for each of the 5 compounds below
1. CCc1ccc2c(O)c3c(cc2c1C(=O)OC)C(=O)c1c(O)ccc(O)c1C3=O
2. CC1(C)O[C@@H]2CC3C4C[C@H](F)C5=CC(=O)CC[C@]5(C)C4[C@@H](O)C[C@]3(C)[C@]2(C(=O)CO)O1 (stereo partly drawn)
3. CC[C@@]1(O)C(=O)OCc2c1cc1n(c2=O)Cc2cc3ccccc3nc2-1
4. COc1cc(O)c2c(=O)cc(-c3ccc(OC)c(-c4c(O)cc(O)c5c(=O)cc(-c6ccc(O)cc6)oc45)c3)oc2c1
5. COC(=O)[C@H]1[C@H]2C[C@H]3c4[nH]c5cc(OC)ccc5c4CCN3C[C@H]2C[C@@H](OC(=O)c2cc(OC)c(OC)c(OC)c2)[C@@H]1OC

A)
1. 0.974
2. 0.973
3. 0.879
4. 1
5. 0.999

Record normalized growth per entry; entries follow.
1. Cc1c(OCC(F)(F)F)ccnc1CS(=O)c1nc2ccccc2[nH]1 (stereo not drawn)
2. Oc1ccc2c3c1OC1[C@@H](O)CC[C@@]4(O)[C@@H](C2)N(CC2CCC2)CC[C@]314 (stereo partly drawn)

A)
1.01
1.01

* * *

EXPERIMENT_NOTES: chemical genetic growth profiling, strain panel (AID 1159580)
TEST_CONTEXT: S. cerevisiae deletion strains, growth OD, locus YMR129W, active compounds read low
The whole screen tested about 5,500 compounds, of which about 2,000 (36%) were called active. Inconclusive results (about 18%) are left out. The list shows a part of the results.
QUANTITY_NAME: normalized growth
One number for each entry.

For orientation, consider the following solved cases.
COMPOUND	normalized growth
C[C@H]1[C@H](C)CC[C@]2(C(=O)O)CC[C@]3(C)C(=CCC4[C@@]5(C)C[C@@H](O)[C@H](O)[C@@](C)(CO)C5CC[C@]43C)[C@H]12 (stereo partly drawn)	1.04
Nc1nc(/C(=C/CC(=O)O)C(=O)N[C@@H]2C(=O)N3C(C(=O)O)=CCS[C@H]23)cs1	1.01
C[C@@H]1CC[C@@]23CCC4(C)[C@@](C=CC5[C@@]6(C)CC[C@H](O)C(C)(C)C6CC[C@]54C)(OC2=O)C3[C@H]1C (stereo partly drawn)	0.997

// for each compound below, give its normalized growth
1. CC1(C)O[C@@H]2CC3C4C[C@H](F)C5=CC(=O)CC[C@]5(C)C4[C@@H](O)C[C@]3(C)[C@]2(C(=O)CO)O1 (stereo partly drawn)
2. CN(C)C(=O)C(CCN1CCC(O)(c2ccc(Cl)cc2)CC1)(c1ccccc1)c1ccccc1
3. O=S(=O)(O)O
4. CC(=O)O[C@@H]1CC2C(C)(CC[C@H](O)C2(C)C)C2CC[C@]3(C)C(=CC(=O)O[C@H]3c3ccoc3)C21C (stereo partly drawn)
5. CC(C)(C)NCC(O)COc1cccc2c1C[C@H](O)[C@H](O)C2 (stereo partly drawn)

A)
1. 1.02
2. 1
3. 0.99
4. 0.989
5. 1.01

* * *

EXPERIMENT_NOTES: chemical genetic growth profiling, strain panel (AID 1159580);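 note: tested at 20 µM; growth read once vehicle control cultures reached saturation at 30 °C; 1 = growth at the plate median or of vehicle wells; lower values mean less growth of the strain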
TEST_CONTEXT: S. cerevisiae deletion strains, growth OD, locus YHR087W, strain rtc3
About 2,000 (36%) of roughly 5,500 compounds were called active. Not shown: some 18% with an inconclusive outcome. No stated cut-off is given here; in the data, active means normalized growth mostly below about 0.91 (no sharp cut-off); inconclusive means no clear call, values can overlap the other calls; inactive means mostly above about 0.92. The list shows a part of the results.
Please reply with one of these outcomes: yes for active, no for inactive

Check out these entries, answers already filled in.
MOLECULE	CLASS_LABEL
Cc1onc(-c2ccccc2)c1C(=O)On1c(-c2ccccc2)nc2ccccc2c1=O	no
CC(=O)C1=C(C)Nc2ccccc2S1	no
O=C1C(c2ccc(Br)cc2)=C(O)c2ccccc21	yes
Cc1ccc(S(=O)(=O)N2CCC(N)=N2)cc1	no
Cc1ccc(SC(=O)c2cccnc2Oc2ccccc2)cc1	no
OCC(O)Cn1c2ccccc2c2ccccc21 (centres undefined)	no

Q) Look up the recorded call for Cc1ccc(Sc2nc(C)c([N+](=O)[O-])c(C)c2C#N)cc1 in this test.
A) no

Q) Hello, I am checking results. What call was entered for CC(=O)c1ccccc1OC(=O)c1c(-c2c(Cl)cccc2Cl)noc1C ?
A) no

Q) What call does the record list for COc1cc([N+](=O)[O-])c(OC)cc1SCC(=O)NNC(=O)c1cc(OC)c(OC)c(OC)c1 ?
A) no

Q) Recorded call for Cc1ccc(Cl)cc1NC(=S)N(CCC#N)/N=C\c1ccc2c(c1)OCO2 ?
A) no

Q) Please indicate how the test categorized CNC(=S)N/N=C\c1cc(Br)cc(Br)c1O .
A) no

Q) Please share the test call associated with CCOC(=O)/C(C#N)=C/Nc1ccc2c(c1)OCO2 .
A) no

Q) Hi team, can someone confirm the assay call for O=C1CC(=O)CC(c2ccc(Cl)c(Cl)c2)C1 ?
A) no

Q) Which outcome did this test record for the molecule O=C1c2ccccc2C(=O)N1CN1CCC(O)(c2ccc(Cl)cc2)CC1 ?
A) no

Q) What call does the record list for Cc1ccc(NC(=O)CC#N)c(C)c1 ?
A) no

Q) Test call, this molecule: CN1c2ccccc2C(=O)/C(=N/Nc2ccccc2F)S1(=O)=O
A) no

* * *

EXPERIMENT_NOTES: chemical genetic growth profiling, strain panel (AID 1159580);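 note: tested at 20 µM; growth read once vehicle control cultures reached saturation at 30 °C; 1 = growth at the plate median or of vehicle wells; lower values mean less growth of the strain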
TEST_CONTEXT: S. cerevisiae deletion strains, growth OD, locus YLR262C, strain YPT6
In all, about 5,500 compounds went through this assay and about 2,000 (36%) were called active. Not shown: some 18% with an inconclusive outcome. Rule as the data show it: active = normalized growth mostly below about 0.91 (no sharp cut-off); inconclusive = no clear call, values can overlap the other calls; inactive = mostly above about 0.92. The list shows a part of the results.
Choose the fitting class; nothing outside t = active, f = inactive is accepted.

Illustrative cases are given below, each with its answer.
MOLECULE	CLASS_LABEL
Cc1c(OCC(F)(F)F)ccnc1CS(=O)c1nc2ccccc2[nH]1 (stereo unspecified)	f
COC(=O)NC(=S)Nc1ccccc1NC(=S)NC(=O)OC	f
NCCCCN	f
C[C@@H]1CCC2[C@](C)(CO)[C@@H](O)CC[C@]2(C)[C@@]12CC[C@@](CO)(CCO)O2 (stereo partly specified)	f
Cc1ccc(Cl)cc1NC(=S)N(CCC#N)/N=C\c1ccc2c(c1)OCO2	f

Q) For CCn1nc(C(=O)O)c(=O)c2cc3c(cc21)OCO3 , what call appears in the results of this test?
A) f

Q) Hi team, can someone confirm the assay call for COC1CC(O[C@H]2CC[C@]3(C=O)C4CC[C@]5(C)C(C6=CC(=O)OC6)CC[C@]5(O)C4CC[C@]3(O)C2)OC(C)C1O (stereo partly specified) ?
A) f

Q) GET /call?item= CCC(=O)OCC(=O)C1(OC(=O)CC)C(C)CC2C3CCC4=CC(=O)C=CC4(C)C3(Cl)C(O)CC21C (stereo unspecified) returns the recorded outcome of this test.
A) f

Q) Returns: the outcome recorded for CO[C@@H]1C[C@H](O[C@H]2CC[C@]3(C)C4CC[C@]5(C)[C@@H](C6=CC(=O)OC6)CC[C@]5(O)[C@@H]4CC[C@]3(O)C2)O[C@H](C)[C@@H]1O (stereo partly specified) in this assay.
A) f

Q) GET /call?item= C[C@H]1[C@H](C)CC[C@]2(C(=O)O)CC[C@]3(C)C(=CCC4[C@@]5(C)C[C@@H](O)[C@H](O)[C@@](C)(CO)C5[C@H](O)C[C@]43C)[C@H]12 (stereo partly specified) returns the recorded outcome of this test.
A) f

Q) Field: outcome | Entry: O=C(O)c1cc(O)ccc1O
A) f

* * *

EXPERIMENT_NOTES: chemical genetic growth profiling, strain panel (AID 1159580);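 note: tested at 20 µM; growth read once vehicle control cultures reached saturation at 30 °C; 1 = growth at the plate median or of vehicle wells; lower values mean less growth of the strain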
TEST_CONTEXT: S. cerevisiae deletion strains, growth OD, locus YJL187C, strain SWE1
In all, about 5,500 compounds went through this assay and about 2,000 (36%) were called active. Roughly 18% stayed inconclusive and do not appear here. No stated cut-off is given here; in the data, active means normalized growth mostly below about 0.91 (no sharp cut-off); inconclusive means no clear call, values can overlap the other calls; inactive means mostly above about 0.92. This is one part of the list.
Write down one outcome, taken from active, inactive

# count of solved cases: 3
COMPOUND	CLASS_LABEL
CCCCCC(O)C1C(=O)OC(C)C(O)/C=C/C=C/C=C/C=C/C=C(\C)C(O)CC(O)CC(O)CC(O)CC(O)CC(O)CC1O (stereo not given)	inactive
CC1(C)C(=O)CC[C@@]2(C)C1C[C@@H](O)[C@@]1(C)C3=CC(=O)O[C@@H](c4ccoc4)[C@]3(C)CCC21 (stereo not given in full)	inactive
CC[C@@]1(O)C(=O)OCc2c1cc1n(c2=O)Cc2cc3ccccc3nc2-1	active

Q) Tell me the assay call for C[C@@H]1CC[C@@]23CCC4(C)[C@@](C=CC5[C@@]6(C)CCC(=O)C(C)(C)C6CC[C@]54C)(OC2=O)C3[C@H]1C (stereo not given in full) please.
A) inactive

Q) What is the recorded call for this compound in the test? C[C@@H]1CC[C@@]23CCC4(C)[C@@](C=CC5[C@@]6(C)CC[C@H](O)C(C)(C)C6CC[C@]54C)(OC2=O)C3[C@H]1C (stereo not given in full)
A) inactive
